Please respond with reported IC50 for every item in the list.
# system: reuptake of serotonine (5-HT) in synaptosomes (Rattus norvegicus, UniProt P31652)
# Construct: in synaptosomes as described in WO 97/16451
# Sequence (P31652 whole entry): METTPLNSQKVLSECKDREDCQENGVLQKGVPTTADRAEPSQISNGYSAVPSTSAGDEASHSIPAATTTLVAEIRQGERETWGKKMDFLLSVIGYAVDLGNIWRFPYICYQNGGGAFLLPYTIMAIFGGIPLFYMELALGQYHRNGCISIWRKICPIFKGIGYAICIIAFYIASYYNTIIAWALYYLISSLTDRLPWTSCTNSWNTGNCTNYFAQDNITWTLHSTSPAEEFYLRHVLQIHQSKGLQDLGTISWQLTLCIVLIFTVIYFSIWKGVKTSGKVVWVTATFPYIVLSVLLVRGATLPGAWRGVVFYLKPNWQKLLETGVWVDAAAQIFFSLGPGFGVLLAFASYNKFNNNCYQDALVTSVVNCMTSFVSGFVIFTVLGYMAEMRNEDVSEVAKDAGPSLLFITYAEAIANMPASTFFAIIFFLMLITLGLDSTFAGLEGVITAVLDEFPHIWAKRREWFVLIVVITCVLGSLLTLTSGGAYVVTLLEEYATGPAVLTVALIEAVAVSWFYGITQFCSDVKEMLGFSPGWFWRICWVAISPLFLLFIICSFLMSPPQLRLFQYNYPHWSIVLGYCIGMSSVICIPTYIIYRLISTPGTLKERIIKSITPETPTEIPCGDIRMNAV
# method-description: Inhibition of serotonin reuptake in synaptosomes

| compound | IC50 |
| --- | --- |
| COc1ccc2ccc(OC3CC4CCC(C3)N4)cc2c1 (centres unmarked) | 0.42 nM |

Now consider the entry below.
Exam item: Param readout= IC50; system= reuptake of serotonine (5-HT) in synaptosomes (Rattus norvegicus, UniProt P31652); entry= COc1ccc2cc(OC3CC4CCC(C3)N4)ccc2c1 (centres unmarked) ; returns value.
Marked response: 26 nM

src = patent US8110586B2
